# Test system: Saccharomyces cerevisiae
# assayText: protein stability index of tFT-peptide fusion (C-terminal peptide) (PSI (0-1 scale)); higher = more stable (slower turnover)
# experimentalParameters: genetic background: wild type; temperature: 30 C
Tick satisfied if protein stability index is 0.6 or greater. Tick not satisfied if protein stability index is less than 0.6.

Please tell me: is the sequence `ERSVTVKIRDLL` at or over 0.6 in terms of protein stability index? satisfied

Please tell me: is the sequence `PPPLSCPRPPIT` at or over 0.6 in terms of protein stability index? satisfied

Please tell me: is the sequence `PSPPFPPPPPPE` at or over 0.6 in terms of protein stability index? satisfied

Please tell me: is the sequence `SCSGTIGVYENP` at or over 0.6 in terms of protein stability index? satisfied

Please tell me: is the sequence `GLRQVPGDLAEG` at or over 0.6 in terms of protein stability index? satisfied

Please tell me: is the sequence `GELGGRAWVERG` at or over 0.6 in terms of protein stability index? satisfied

Please tell me: is the sequence `RKKRERIREKKN` at or over 0.6 in terms of protein stability index? not satisfied

Please tell me: is the sequence `GEFISRSSRIEI` at or over 0.6 in terms of protein stability index? satisfied

Please tell me: is the sequence `CIKQTNNQNKSN` at or over 0.6 in terms of protein stability index? satisfied

Please tell me: is the sequence `SSSRCPRLPLPS` at or over 0.6 in terms of protein stability index? satisfied

Please tell me: is the sequence `PHRSLHTPTLCS` at or over 0.6 in terms of protein stability index? satisfied

Please tell me: is the sequence `CQTRTKAKKTQV` at or over 0.6 in terms of protein stability index? satisfied

Please tell me: is the sequence `QYSFFLRSPEVF` at or over 0.6 in terms of protein stability index? not satisfied

Please tell me: is the sequence `ERDDRSFEWPRQ` at or over 0.6 in terms of protein stability index? satisfied

Please tell me: is the sequence `FILLFGCFGFFC` at or over 0.6 in terms of protein stability index? not satisfied

Please tell me: is the sequence `HRCRVGGSRFEK` at or over 0.6 in terms of protein stability index? satisfied

Please tell me: is the sequence `RGGGPTGARPAM` at or over 0.6 in terms of protein stability index? satisfied

Please tell me: is the sequence `LVCLTPPPSPFS` at or over 0.6 in terms of protein stability index? not satisfied

* * *

Please respond with reported protein stability index for every item in the list.
# System: Saccharomyces cerevisiae
# assayText: protein stability index of tFT-peptide fusion (C-terminal peptide) (PSI (0-1 scale)); higher = more stable (slower turnover)
# experimentalParameters: genetic background: cdc34-1; temperature: 37 C

Reported protein stability index, sequence `LLVRYYLFYVLV` : ____ 0.357

Reported protein stability index, sequence `GVGHAWHYFCVC` : ____ 0.614

Reported protein stability index, sequence `PPVPRLLPVLAP` : ____ 0.525

Reported protein stability index, sequence `LVAGFVFIFFYR` : ____ 0.356

Reported protein stability index, sequence `FCFVRGLLFLFF` : ____ 0.476

Reported protein stability index, sequence `PCLPLTPMWTLF` : ____ 0.713

Reported protein stability index, sequence `KYKLYGIMIIEG` : ____ 0.39

Reported protein stability index, sequence `LWAPFWVSRVTA` : ____ 0.481

Reported protein stability index, sequence `RIIKIRAISINL` : ____ 0.575

Reported protein stability index, sequence `WLCLGLVVGLFL` : ____ 0.44

Reported protein stability index, sequence `VGVSCVVCVCGV` : ____ 0.493

Reported protein stability index, sequence `AFRFLAVCVGCG` : ____ 0.144

Reported protein stability index, sequence `GSLFANYNLKLF` : ____ 0.623

Reported protein stability index, sequence `VVSLAVVGRFLV` : ____ 0.616

Reported protein stability index, sequence `DGYLFKGIWFFV` : ____ 0.645

Reported protein stability index, sequence `RRGGNIVWYCLV` : ____ 0.588

Reported protein stability index, sequence `CGFVFFVLVVFW` : ____ 0.112

Reported protein stability index, sequence `AELLMLRIFFLF` : ____ 0.281

Reported protein stability index, sequence `CKKATILRIKSM` : ____ 0.589

Reported protein stability index, sequence `YAFSTCTILIRF` : ____ 0.187

Reported protein stability index, sequence `TLPIWLRVLIFG` : ____ 0.341

Reported protein stability index, sequence `SLLFPLPRPLLD` : ____ 0.7

Reported protein stability index, sequence `WLVCAGWVVLSC` : ____ 0.153

Reported protein stability index, sequence `VDVWRWRGLRVG` : ____ 0.635

Reported protein stability index, sequence `APGLLPPCLLVV` : ____ 0.374

Reported protein stability index, sequence `GLLAEPALLLLS` : ____ 0.661

Reported protein stability index, sequence `ACGAGFIILLGL` : ____ 0.641

Reported protein stability index, sequence `GVAILFTFFRLL` : ____ 0.228

Reported protein stability index, sequence `MALAVRVVRCGA` : ____ 0.406

Reported protein stability index, sequence `YLFLPGGEVSVH` : ____ 0.641

Reported protein stability index, sequence `VVLWTFLLEVSA` : ____ 0.0259

Reported protein stability index, sequence `RCTLFVNPVCVH` : ____ 0.251

Reported protein stability index, sequence `SRSYNSPSLYVC` : ____ 0.498

Reported protein stability index, sequence `PPPLPFPTPPPS` : ____ 0.689

Reported protein stability index, sequence `SGVVWFYIFCLS` : ____ 0.473

Reported protein stability index, sequence `LFGFILLGVSCC` : ____ 0.0506

Reported protein stability index, sequence `VFFSLSLILFPF` : ____ 0.431

Reported protein stability index, sequence `VVFVRLGWMRAC` : ____ 0.441

Reported protein stability index, sequence `LRKARLFLKAKC` : ____ 0.645

Reported protein stability index, sequence `FWHGRCPGLYLV` : ____ 0.583

Reported protein stability index, sequence `GIVSGEGAVGVG` : ____ 0.46

* * *

# Test system: Saccharomyces cerevisiae
# assayText: protein stability index of tFT-peptide fusion (C-terminal peptide) (PSI (0-1 scale)); higher = more stable (slower turnover)
# experimentalParameters: genetic background: wild type; temperature: 30 C
recordedEndpoint: protein stability index

Reported protein stability index, sequence `LLVSVHFSPPLY` : ____ 0.551

Reported protein stability index, sequence `AIRIERLGLAIP` : ____ 0.682

Reported protein stability index, sequence `GARRVVFSSVLQ` : ____ 0.774

Reported protein stability index, sequence `RIRVKSLAPSPS` : ____ 0.74

Reported protein stability index, sequence `NMGRCEGGKTAR` : ____ 0.643

Reported protein stability index, sequence `GAGRGKEREYRP` : ____ 0.614

Reported protein stability index, sequence `PRSPPSPPPPPS` : ____ 0.641

Reported protein stability index, sequence `VCVFFLFGYFRL` : ____ 0.562

Reported protein stability index, sequence `FRCPGFYVVIFP` : ____ 0.582

Reported protein stability index, sequence `ASSRQCSVEART` : ____ 0.695

* * *

# Test system: Saccharomyces cerevisiae
# assayText: protein stability index of tFT-peptide fusion (C-terminal peptide) (PSI (0-1 scale)); higher = more stable (slower turnover)
# experimentalParameters: genetic background: wild type; temperature: 30 C
Please respond with reported protein stability index for every item in the list.
I only need the number, thanks.

Reported protein stability index, sequence EECYLHSESFGY [FRE7 C-terminal 12 aa] : ____ 0.664

Reported protein stability index, sequence IRKPDDKFSSFI [YOR072W C-terminal 12 aa] : ____ 0.706

Reported protein stability index, sequence SNDDFRKMFLGE [PRP24 C-terminal 12 aa] : ____ 0.708

Reported protein stability index, sequence MSLRKYVSVCSM [YHL006W-A C-terminal 12 aa] : ____ 0.513

Reported protein stability index, sequence EAQLTRKQAPPV [COS9 C-terminal 12 aa] : ____ 0.699

Reported protein stability index, sequence SGPVEELVSPSK [IRC8 C-terminal 12 aa] : ____ 0.685

Reported protein stability index, sequence NLEFETEHNVTN [NDC80 C-terminal 12 aa] : ____ 0.708

Reported protein stability index, sequence PLHFQLIWLPIF [YML099W-A C-terminal 12 aa] : ____ 0.505

Reported protein stability index, sequence KGVFWDPACVIA [MFA1 C-terminal 12 aa] : ____ 0.713

Reported protein stability index, sequence QEISYKFSKTYS [IME1 C-terminal 12 aa] : ____ 0.664

Reported protein stability index, sequence IWKKVPETKRSG [VPS73 C-terminal 12 aa] : ____ 0.669

Reported protein stability index, sequence TRKWANAAKGMP [YLR407W C-terminal 12 aa] : ____ 0.727

Reported protein stability index, sequence NPFEYENFINIE [YOR263C C-terminal 12 aa] : ____ 0.721

Reported protein stability index, sequence PSMTTTNFSAFM [ECM22 C-terminal 12 aa] : ____ 0.697

Reported protein stability index, sequence INDNNENASNSV [GLD1 C-terminal 12 aa] : ____ 0.676

Reported protein stability index, sequence SVTSGSANFVFY [UTH1 C-terminal 12 aa] : ____ 0.7

Reported protein stability index, sequence DGTTSKDSEKKK [COA4 C-terminal 12 aa] : ____ 0.648

Reported protein stability index, sequence NKTNNKKKHGKK [CLU1 C-terminal 12 aa] : ____ 0.713

Reported protein stability index, sequence SKMLKNKIPLKN [YGL138C C-terminal 12 aa] : ____ 0.685

Reported protein stability index, sequence KSQISVSFYRDN [YPR027C C-terminal 12 aa] : ____ 0.674

Reported protein stability index, sequence AYLLFYTIRQVN [UBP8 C-terminal 12 aa] : ____ 0.14

Reported protein stability index, sequence KWLWRELEESSL [OCA5 C-terminal 12 aa] : ____ 0.723

Reported protein stability index, sequence RHSMSEEELEMY [KTR4 C-terminal 12 aa] : ____ 0.685

Reported protein stability index, sequence TISPYIRVCVST [YPR099C C-terminal 12 aa] : ____ 0.424

Reported protein stability index, sequence ECDGITVPEKLT [MSC6 C-terminal 12 aa] : ____ 0.708

Reported protein stability index, sequence PLPDLDEDDGEE [DOM34 C-terminal 12 aa] : ____ 0.704

Reported protein stability index, sequence VPDIPPPPALVA [NUP42 C-terminal 12 aa] : ____ 0.699

Reported protein stability index, sequence LAITIAALCASL [EXG2 C-terminal 12 aa] : ____ 0.572

Reported protein stability index, sequence RNRLENISTMVI [YIA6 C-terminal 12 aa] : ____ 0.709

Reported protein stability index, sequence AYFIDVVGCSGL [LIH1 C-terminal 12 aa] : ____ 0.705

Reported protein stability index, sequence NGINNSSATYKI [ULA1 C-terminal 12 aa] : ____ 0.71

Reported protein stability index, sequence LLCFRPTRGCGP [YCL041C C-terminal 12 aa] : ____ 0.687

Reported protein stability index, sequence FLSNEPTFLGCV [YPL135C-A C-terminal 12 aa] : ____ 0.722

Reported protein stability index, sequence SKADSYRSVIRH [DLT1 C-terminal 12 aa] : ____ 0.675

Reported protein stability index, sequence LADLRVYLRVPG [YGL088W C-terminal 12 aa] : ____ 0.568

Reported protein stability index, sequence NGYFGYAPGHYP [OPT2 C-terminal 12 aa] : ____ 0.708

Reported protein stability index, sequence LISEFQKKQAKK [MEF1 C-terminal 12 aa] : ____ 0.691

Reported protein stability index, sequence EKQQRRNMKNAL [RRS1 C-terminal 12 aa] : ____ 0.703

Reported protein stability index, sequence PSSKAPSPGVNT [TEM1 C-terminal 12 aa] : ____ 0.64

Reported protein stability index, sequence TKCEEEIKNLSK [YME2 C-terminal 12 aa] : ____ 0.711

Reported protein stability index, sequence SFVKIQDAIKKT [MRPL9 C-terminal 12 aa] : ____ 0.627

Reported protein stability index, sequence LKILRQKMNHQN [ATG1 C-terminal 12 aa] : ____ 0.207

Reported protein stability index, sequence AQGKLIMNVEKF [AST1 C-terminal 12 aa] : ____ 0.689

Reported protein stability index, sequence EDAEKRADEMDD [SRM1 C-terminal 12 aa] : ____ 0.675

Reported protein stability index, sequence SPAHSFEKIQKI [ERF2 C-terminal 12 aa] : ____ 0.688

Reported protein stability index, sequence NTMGKSGRHNIT [YOR282W C-terminal 12 aa] : ____ 0.685

Reported protein stability index, sequence TPEDADEEEDDE [RPL22B C-terminal 12 aa] : ____ 0.655

Reported protein stability index, sequence NQYANNLNLIDM [YAP1801 C-terminal 12 aa] : ____ 0.672

Reported protein stability index, sequence TVLKAAKKEGLN [MGR3 C-terminal 12 aa] : ____ 0.671
